Source listed as patent US8552002B2.

Measured inhibition at 10 µM, listed per entry for reference.
Target: Tek (Homo sapiens, UniProt Q02763)
Construct: amino acids 773-1124 of the cytoplasmic kinase domain of human Tek, N-terminally fused to GST; made in house; host or cells: Sf9 insect cells (baculovirus)
Sequence (Q02763 773-1124): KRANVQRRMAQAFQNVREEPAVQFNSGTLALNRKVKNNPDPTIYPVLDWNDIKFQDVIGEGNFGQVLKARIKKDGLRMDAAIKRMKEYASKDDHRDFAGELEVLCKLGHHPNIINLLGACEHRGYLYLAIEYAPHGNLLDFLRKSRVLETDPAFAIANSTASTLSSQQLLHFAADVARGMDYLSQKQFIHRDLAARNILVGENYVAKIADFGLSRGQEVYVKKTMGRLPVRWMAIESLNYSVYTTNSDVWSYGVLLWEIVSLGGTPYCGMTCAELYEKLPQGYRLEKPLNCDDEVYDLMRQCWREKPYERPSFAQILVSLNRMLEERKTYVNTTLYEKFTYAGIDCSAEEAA
Experiment: Recombinant GST-Tek (Tie-2) tyrosine kinase assay (33P into poly(Glu,Tyr))
Type: biochemical
Conditions: Examples 1 to 169

- CCN(C(=O)Nc1c(Cl)c(OC)cc(OC)c1Cl)c1cc(Nc2ccc(N3CCN(C)CC3)cc2)ncn1 [Example 143]: 12 to 100%
- COc1cc(NC(=O)Nc2cc(Nc3cccc(Cl)c3)ncn2)cc(OC)c1 [Example 139]: 12 to 100%
- CN1CCN(c2ccc(N(C(=O)Nc3cccc(Cl)c3Cl)c3cc(N)ncn3)cc2)CC1 [Example 76]: 12 to 100%

Prompt: Return inhibition at 10 µM measured with Tek (Homo sapiens, UniProt Q02763) given this compound: COc1ccc(Nc2cc(NC(=O)Nc3c(Cl)cccc3Cl)ncn2)cn1 [Example 112]
Completion: 12 to 100%

Prompt: What inhibition at 10 µM appears in the records for this compound with Tek (Homo sapiens, UniProt Q02763)? COc1cc(NC(=O)N(C)c2cc(Nc3ccc(C(=O)N4CCN(C)CC4)cc3)ncn2)c(Cl)c(OC)c1 [Example 52]
Completion: 12 to 100%

Prompt: Short answer please: inhibition at 10 µM, Tek (Homo sapiens, UniProt Q02763), entry COc1cc(NC(=O)N(CCc2ccccn2)c2cc(Nc3ccccc3)ncn2)c(Cl)c(OC)c1 [Example 58]
Completion: 12 to 100%

Prompt: Please provide the recorded inhibition at 10 µM for CC(C)Nc1cc(NC(=O)Nc2c(Cl)cccc2Cl)ncn1 [Example 68] , tested on Tek (Homo sapiens, UniProt Q02763).
Completion: 12 to 100%

Prompt: Find inhibition at 10 µM (Tek (Homo sapiens, UniProt Q02763)) for the entry Cc1cccc(Cl)c1NC(=O)Nc1cc(Nc2ccc(OCC3CCN(C)CC3)cc2)ncn1 [Example 70]
Completion: 12 to 100%
